- system: FES (human)
- assay-remarks: KINOMEscan competition binding
pIC50: −log10 of the molar value.
measured-property: pIC50

[[record]]
smiles_input = "CCOc1cc(N2CCC(N3CCCCC3)CC2)ccc1Nc1nc(Nc2ccccc2S(=O)(=O)C(C)C)c2cn[nH]c2n1"
measured_number = 4.24


----------
- Test system: KIT (human), P10721 [V559D/T670I]
- Sequence (P10721 whole entry V559D/T670I, looked up): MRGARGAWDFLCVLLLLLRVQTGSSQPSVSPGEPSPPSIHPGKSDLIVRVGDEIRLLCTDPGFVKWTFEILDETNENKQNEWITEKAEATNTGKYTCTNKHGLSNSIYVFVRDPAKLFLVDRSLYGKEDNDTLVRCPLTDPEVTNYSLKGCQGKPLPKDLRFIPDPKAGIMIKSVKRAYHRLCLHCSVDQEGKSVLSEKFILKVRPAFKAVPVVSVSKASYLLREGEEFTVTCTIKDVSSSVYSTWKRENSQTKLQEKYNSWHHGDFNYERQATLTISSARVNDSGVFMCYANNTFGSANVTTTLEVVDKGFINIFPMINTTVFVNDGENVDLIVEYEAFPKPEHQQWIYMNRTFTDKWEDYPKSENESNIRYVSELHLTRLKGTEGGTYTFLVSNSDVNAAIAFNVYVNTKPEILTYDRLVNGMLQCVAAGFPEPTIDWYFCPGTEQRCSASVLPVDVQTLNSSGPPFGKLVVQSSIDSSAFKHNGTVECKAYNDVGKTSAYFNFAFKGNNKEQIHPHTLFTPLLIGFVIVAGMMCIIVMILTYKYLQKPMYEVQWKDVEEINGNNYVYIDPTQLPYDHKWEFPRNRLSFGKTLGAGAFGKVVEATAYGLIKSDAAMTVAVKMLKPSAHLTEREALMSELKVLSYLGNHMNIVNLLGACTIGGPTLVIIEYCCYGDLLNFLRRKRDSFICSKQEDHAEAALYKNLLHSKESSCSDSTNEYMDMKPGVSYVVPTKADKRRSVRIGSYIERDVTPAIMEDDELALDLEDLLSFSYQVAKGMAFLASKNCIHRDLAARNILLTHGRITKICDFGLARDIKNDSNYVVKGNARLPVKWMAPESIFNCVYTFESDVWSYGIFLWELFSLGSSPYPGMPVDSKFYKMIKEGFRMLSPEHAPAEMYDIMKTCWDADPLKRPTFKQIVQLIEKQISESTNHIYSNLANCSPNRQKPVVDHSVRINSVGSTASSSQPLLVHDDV
- assay-remarks: KINOMEscan competition binding
- assay-setup: compound 10.0 µM
measured-property: kinase still bound, per cent of control

[[record]]
smiles_input = "COc1cc(N2CCC(N3CCN(C)CC3)CC2)ccc1Nc1ncc(Cl)c(Nc2ccccc2S(=O)(=O)C(C)C)n1"
result = "0.95%"

[[record]]
smiles_input = "CCOc1cc(N2CCC(N3CCCCC3)CC2)ccc1Nc1nc(Nc2ccccc2S(=O)(=O)C(C)C)c2cn[nH]c2n1"
result = "100%"

[[record]]
smiles_input = "CCN1CCN(Cc2ccc(NC(=O)c3ccc(C)c(/C=C/c4cnc(Nc5cc(N6CCNCC6)nc(C)n5)cn4)c3)cc2C(F)(F)F)CC1"
result = "14%"

[[record]]
smiles_input = "CCN1CCN(Cc2ccc(NC(=O)c3ccc(C)c(Oc4ccnc5[nH]ccc45)c3)cc2C(F)(F)F)CC1"
result = "0.05%"

